# procedure-summary: NCI Yeast Anticancer Drug Screen. Data for the mlh1 rad18 strain (AID 175)
# condition-info: S. cerevisiae mlh1 rad18 strain growth inhibition; at 50.0 µM (retest, dose inferred, filed as 5.0)
# Method: Growth inhibition of yeast strains with defined genetic alterations is measured as a screen for potential anti-cancer activity. Selected strains with alterations in DNA damage repair or cell cycle control were exposed to compounds and growth inhibition was measured relative to vehicle treated controls. The strain used in this assay is mlh1 rad18
About 79,000 compounds went through this panel and 15% of them were active in at least one assay; those are over-represented in the sample as a whole. Active and inactive are the calls of the source. No stated cut-off is given here; in the data, active means growth inhibition above about 70%; inactive means the rest.
A correct response names exactly one class from active, inactive

Below, 5 molecules whose answers are already recorded.
O=C1C(=O)N(c2ccccc2)N=C1N=Nc1ccccc1 = active
CCn1c2ccc([N+](=O)[O-])cc2c2c([N+](=O)[O-])c(-n3cccc3)ccc21 = inactive
Cc1cc(O)cc2c1c(=O)c1ccccc1n2C = inactive
COC(=O)CCc1c(Cc2ccc[nH]2)[nH]c(C(=O)OCc2ccccc2)c1C = active
c1ccc([P+](CCCCCC[P+](c2ccccc2)(c2ccccc2)c2ccccc2)(c2ccccc2)c2ccccc2)cc1 = active

Okay, next one:
Hi team, can someone confirm the assay call for CCCCCCCCC(N)CCCCCCCC ? active

----------
# procedure-summary: NCI Yeast Anticancer Drug Screen. Data for the mlh1 rad18 strain (AID 175)
# condition-info: S. cerevisiae mlh1 rad18 strain growth inhibition; at 5.0 µM (retest, dose inferred, filed as 0.5)
Compounds without any hit were thinned out: in the full panel of roughly 79,000, 15% have a hit. Active and inactive are the calls of the source. No stated cut-off is given here; in the data, active means growth inhibition above about 70%; inactive means the rest.
// allowed return values: active, inactive

Solved entries:
O=c1[nH]n(CCc2ccccn2)c(=O)c(Cl)c1Cl = inactive
C1=CC2OC1c1cc3ccccc3cc12 = inactive
Cc1ccc(N2CCN(c3c(N)cncc3Br)CC2)cc1 = inactive

Which outcome was assigned to O=C(O)C(O)C(O)C(OC1OC(CO)C(O)C(O)C1O)C(O)CO.[Br][Pt].[NH-]C1CCCCC1[NH-] (centres undefined) in this test? inactive

Also CCC(N)(CO)CO , if possible. inactive

One more compound: c1cc2c3c(c1)[I+]c1cccc(c1-3)[I+]2 inactive

----------
# procedure-summary: NCI Yeast Anticancer Drug Screen. Data for the cln2 rad14 strain (AID 165);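 further: 0% = growth equal to vehicle treated cultures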
# condition-info: S. cerevisiae cln2 rad14 strain, at 50.0 µM (retest, dose inferred, filed as 5.0)
The panel holds about 79,000 compounds, 15% with a hit somewhere; the sample as a whole holds those more often. Active and inactive are the calls of the source. No stated cut-off is given here; in the data, active means growth inhibition above about 70%; inactive means the rest.
Output constraint: value belongs to label 1 (active), label 0 (inactive)

CCCCCCCCCCCC(O)=C1C(=O)CC(O)CC1=O (configuration not stated) = label 1
COc1ccc(C(c2ccc(OC)c(OC)c2)C(Cl)(Cl)Cl)cc1OC = label 1
O=S(=O)(Nc1ccccn1)c1ccc(NCc2c3ccccc3nc3cc(Cl)ccc23)cc1 = label 0
Oc1ccccc1C(Sc1nc2ccccc2s1)Sc1nc2ccccc2s1 = label 1
COc1ccc(C2=CCC3C4CC=C5CC(O)CCC5(C)C4CCC23C)s1 (configuration not stated) = label 0

Field: outcome | Entry: Fc1ccc2[nH]ccc2c1 label 0

Now try CCCC/C=C\CCCCCCCCCC1=C(O)C(=O)C=C(OC)C1=O . label 0

Do the same for Sc1ccccc1C1N(Cc2ccc(Cl)cc2)CCCN1Cc1ccc(Cl)cc1 please label 0

Consider next the compound Cc1ccc(N2CCN(c3c(N)cncc3Br)CC2)cc1 in the same way. label 0

Field entry: Oc1ccccc1C1CCCCC1 label 0

Please give the result for C=C1CC[C@@H](Br)C(C)(C)[C@]12CCC(C)(O)C(Cl)C2 (some centres not stated) too. label 0

----------
# procedure-summary: NCI Yeast Anticancer Drug Screen. Data for the mec2-1 strain (AID 157)
# condition-info: S. cerevisiae mec2-1 strain, at 5.0 µM (retest, dose inferred, filed as 0.5), hits give high values
Compounds without any hit were thinned out: in the full panel of roughly 79,000, 15% have a hit. Activity calls are given as the source filed them. Cut-off read from the data, not from the text of the source: active = growth inhibition above about 70%; inactive = the rest.
assay-metric: growth inhibition

Example results:
CC(C)N=Cc1cc(I)cc(I)c1O.CC(C)N=Cc1cc(I)cc(I)c1O.[Co] = 99% (active)
CN(C)CCCCN1c2ccccc2Sc2ccc(C(=O)c3ccccc3)cc21 = -2% (inactive)
CCCCCCCCCCCCCCC(O)C(=O)O (configuration not stated) = -2% (inactive)
O=[N+]([O-])c1c(Cl)cccc1-c1c[nH]cc1Cl = 25% (inactive)
ClC(Cl)=C1C(=C(Cl)Cl)C(Cl)(Cl)C1(Cl)Cl = 14% (inactive)

Kindly give each listed record's growth inhibition.
1. CC1=NC(C)C(C)S1 (configuration not stated)
2. c1ccc(-c2n[nH]c3c4ccccc4c4ccccc4c23)cc1
3. O=C(CCC(NC(=O)OCc1ccccc1)C(=O)OCc1ccccc1)NC(CSCc1ccccc1)C(=O)NCC(=O)Oc1c(Cl)c(Cl)c(Cl)c(Cl)c1Cl (configuration not stated)
4. Oc1ccc(O)c2c1CC=C(Cl)C2

1: 0% (inactive); 2: 16% (inactive); 3: 9% (inactive); 4: 12% (inactive)

Give one value of growth inhibition per listed molecule.
1. C/C(=N\NC(=S)NC(C)(C)C)c1ccccn1
2. Nc1ccccc1N=Cc1ccccc1O
3. C=CCNC(=O)c1ccccc1C(=O)O

13% (inactive)
-4% (inactive)
1% (inactive)

----------
# procedure-summary: NCI Yeast Anticancer Drug Screen. Data for the cln2 rad14 strain (AID 165);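 further: 0% = growth equal to vehicle treated cultures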
# condition-info: S. cerevisiae cln2 rad14 strain, at 50.0 µM
This is part of a sample that, as a whole, favours compounds with a hit. Of some 79,000 tested, about 15% had one in any assay. Activity calls are given as the source filed them. Cut-off read from the data, not from the text of the source: active = growth inhibition above about 70%; inactive = the rest.
Permitted responses: Yes (active), No (inactive)

CC(=O)c1c(O)c2ccc(Cl)cc2[nH]c1=O = No
CCN1C(Cl)=NS(=O)(=O)c2ccccc21 = No
c1cc[c]([Sn]([S]c2ccccn2)([c]2ccccc2)[c]2ccccc2)cc1 = Yes
O=C(CCCCCCCCCCc1ccccc1)c1c(O)cccc1O = Yes
N=C(N)c1ccc(Oc2ccc(Oc3ccc(C(=N)N)cc3)cc2)cc1 = No

Dear all, I need the recorded test outcome for CCC(Sc1ccccc1[N+](=O)[O-])[N+](=O)[O-] (centres undefined) , thank you. No

Try the molecule CCN(CC)CCNc1c(O)cc(C)c2sc3ccccc3c(=O)c12 Yes

# repeat for CCCCCCCCN(CCCCCCCC)CC(O)c1ccc2cc3c(nc2c1)CCCC3 (centres undefined) Yes

----------
# procedure-summary: NCI Yeast Anticancer Drug Screen. Data for the rad50 strain (AID 155);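 further: 0% = growth of vehicle-only cultures of the same strain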
# condition-info: S. cerevisiae rad50 strain growth inhibition; at 50.0 µM (retest, dose inferred, filed as 5.0); hits give high values
This is part of a sample that, as a whole, favours compounds with a hit. Of some 79,000 tested, about 15% had one in any assay.
Please go through the items and note down their growth inhibition.
Numbers only, in %.

Please review the entries below; each comes with its answer.
CC(C)c1cc(C(=O)[O-])c(O)c(C(C)C)c1.CC(C)c1cc(C(=O)[O-])c(O)c(C(C)C)c1.CC(C)c1cc(C(=O)[O-])c(O)c(C(C)C)c1.CC(C)c1cc(C(=O)[O-])c(O)c(C(C)C)c1.CC(C)c1cc(C(=O)[O-])c(O)c(C(C)C)c1.CC(C)c1cc(C(=O)[O-])c(O)c(C(C)C)c1.[Cu+2].[Mn+2].[Mn+2] = 63
CNc1cc(SC)nc(N)n1 = -7
Cc1cc[n+](C2CCC3(C)C(=CCC4C3CCC3(C)C(C(C)CCCC(C)C)CCC43)C2)cc1 (stereo not drawn) = 97
COc1cc(C2CC(C)(OC)Oc3cc4c(cc32)OCO4)cc(OC)c1O (stereo not drawn) = 55
Cc1cc(C(=O)O)c(C)cc1SSc1cc(C)c(C(=O)O)cc1C = 72

Hi! Can you tell me growth inhibition for each of these compounds?
1. CCN(CC)c1cc(Nc2c3ccc(Cl)cc3nc3cc(Cl)ccc23)ccc1O
2. NC(=S)c1cccc(OCCCOc2ccccc2)c1
3. CCC[CH2][Sn]([CH2]CCC)([O]C(=O)c1ccc(C)c(N)c1)[O]C(=O)c1ccc(C)c(N)c1

[4, 4, 98]

----------
# procedure-summary: NCI Yeast Anticancer Drug Screen. Data for the cln2 rad14 strain (AID 165);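 further: 0% = growth equal to vehicle treated cultures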
# condition-info: S. cerevisiae cln2 rad14 strain, at 50.0 µM (retest, dose inferred, filed as 5.0)
This is part of a sample that, as a whole, favours compounds with a hit. Of some 79,000 tested, about 15% had one in any assay. The source made the active and inactive calls. No stated cut-off is given here; in the data, active means growth inhibition above about 70%; inactive means the rest.
Permitted responses: true (active), false (inactive)

For orientation, consider the following solved cases.
O=C(O)CNc1ccc2c(c1)Cc1cc(Br)ccc1-2 = false
Cc1ccc(S(=O)(=O)C2C=CC=CC=C2)cc1 = false
O=C(Nc1cccc2ccccc12)OCCCCCCl = true
CC(C)(C)C(OC(=O)Nc1ccccc1)C(C)(C)C = false
CCOC(=O)C1SC(=S)N(C)C1=O (configuration not stated) = true

Call for entry O=C(c1ccc(Cl)c([N+](=O)[O-])c1)c1ccc(Cl)c([N+](=O)[O-])c1 : true

Also CCOC(=O)CCCCCN , if possible. false
